Below, each entry is listed with its recorded pIC50.
- Test system: 134 cancer cell lines
- assay_remarks: Cell viability assay (ATPlite, 72 hours), IC50 on cancer cell line panel
- experimental_setup: Homo sapiens, SNU-5, read-out: IC50 in cell proliferation assay, cell line SNU-5 (MET amplification)
# pIC50 = -log10(concentration in molar units)

smiles_structure | pIC50
COc1cc2ncnc(Nc3ccc(F)c(Cl)c3)c2cc1NC(=O)/C=C/CN1CCCCC1 | 5.47

API: the following record is the query input.
Recorded result, `Cc1nc(NC(=O)N2CCC[C@H]2C(N)=O)sc1-c1ccnc(C(C)(C)C(F)(F)F)c1` , pIC50: 4.86

* * *

The molecules listed here are annotated with their inhibition at 1 µM.
- test_target: panel of 255 wild-type kinases (Homo sapiens, UniProt O75676)
- Sequence (O75676 whole entry): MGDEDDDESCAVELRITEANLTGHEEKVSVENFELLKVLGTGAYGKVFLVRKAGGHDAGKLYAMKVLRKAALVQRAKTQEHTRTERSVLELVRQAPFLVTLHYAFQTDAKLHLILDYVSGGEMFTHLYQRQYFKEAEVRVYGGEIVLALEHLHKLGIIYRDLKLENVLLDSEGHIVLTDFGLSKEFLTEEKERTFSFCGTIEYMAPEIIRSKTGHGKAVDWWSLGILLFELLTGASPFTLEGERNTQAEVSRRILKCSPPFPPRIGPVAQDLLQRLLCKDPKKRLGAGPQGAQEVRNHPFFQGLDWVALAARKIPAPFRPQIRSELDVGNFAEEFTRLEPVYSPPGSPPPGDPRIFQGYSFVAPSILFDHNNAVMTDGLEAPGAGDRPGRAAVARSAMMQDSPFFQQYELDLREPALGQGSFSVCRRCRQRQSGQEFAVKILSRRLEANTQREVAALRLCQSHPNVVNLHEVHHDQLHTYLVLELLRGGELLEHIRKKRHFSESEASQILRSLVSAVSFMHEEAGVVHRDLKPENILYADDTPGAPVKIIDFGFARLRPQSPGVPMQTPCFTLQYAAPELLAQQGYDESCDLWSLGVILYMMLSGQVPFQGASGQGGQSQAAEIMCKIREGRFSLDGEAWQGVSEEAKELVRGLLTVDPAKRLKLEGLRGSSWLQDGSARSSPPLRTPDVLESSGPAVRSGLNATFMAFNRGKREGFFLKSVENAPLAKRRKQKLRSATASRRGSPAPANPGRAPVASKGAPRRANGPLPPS
- assay_remarks: Kinase panel profiling at 1 µmol/L (MSA or IMAP), percentage inhibition
- Format: biochemical
- experimental_setup: MSK2; 1 µmol/L single concentration; read-out: %-inhibition, MSK2
Answer with a number only, understood to be in %.

molecule | result_number
CCN1CCN(c2ccc(Nc3cc(N(C)C(=O)Nc4c(Cl)c(OC)cc(OC)c4Cl)ncn3)cc2)CC1 [infigratinib] | -0.703
CCc1nc(C(N)=O)c(Nc2ccc(N3CCC(N4CCN(C)CC4)CC3)c(OC)c2)nc1NC1CCOCC1 [gilteritinib] | 6
Cn1cc(-c2cc3c(N4CCN(c5ncc([C@@](C)(N)c6ccc(F)cc6)cn5)CC4)ncnn3c2)cn1 [avapritinib] | 5
COc1cc2ncnc(Nc3ccc(F)c(Cl)c3)c2cc1NC(=O)/C=C/CN1CCCCC1 [dacomitinib] | 6
Cn1cnc2c(F)c(Nc3ccc(Br)cc3Cl)c(C(=O)NOCCO)cc21 [selumetinib] | -0.42
O=C(Nc1cnn2ccc(N3CCC[C@@H]3c3cc(F)ccc3F)nc12)N1CC[C@H](O)C1 [larotrectinib] | -3.36

Here is another molecule to look at.
Lookup result for CN1CCN(c2ccc(C(=O)Nc3n[nH]c4ccc(Cc5cc(F)cc(F)c5)cc34)c(NC3CCOCC3)c2)CC1 [entrectinib] ; measured inhibition at 1 µM: 2.7

* * *

- test_target: panel of 255 wild-type kinases (Homo sapiens)
- assay_remarks: Kinase panel profiling at 1 µmol/L (MSA or IMAP), percentage inhibition
- Assay type: biochemical
- experimental_setup: MST3; 1 µmol/L single concentration; read-out: %-inhibition, MST3
quantity_name: inhibition at 1 µM (%)
Enter your answer as a number in %; do not include the unit.

// known answers, use as guide
smiles_structure | inhibition at 1 µM / %
Cn1cnc2c(F)c(Nc3ccc(Br)cc3F)c(C(=O)NOCCO)cc21 | 1.89
FC(F)(F)c1ccc(CNc2ccc(Cc3c[nH]c4ncc(Cl)cc34)cn2)cn1 | 5

Value of measured inhibition at 1 µM for the entry `Cn1cc(-c2cc3c(N4CCN(c5ncc([C@@](C)(N)c6ccc(F)cc6)cn5)CC4)ncnn3c2)cn1` : 12

According to the records, this compound `C=CC(=O)N1CCC([C@@H]2CCNc3c(C(N)=O)c(-c4ccc(Oc5ccccc5)cc4)nn32)CC1` displays inhibition at 1 µM of 0.0873

* * *

Quick reference for IC50 among some molecules
- System: 134 cancer cell lines
- assay_remarks: Cell viability assay (ATPlite, 72 hours), IC50 on cancer cell line panel
- experimental_setup: Homo sapiens, SK-N-AS, read-out: IC50 in cell proliferation assay

Here `CC#CC(=O)N1CCC[C@H]1c1nc(-c2ccc(C(=O)Nc3ccccn3)cc2)c2c(N)nccn12` was tested on 134 cancer cell lines, and its IC50 came to > 31.6 µM

Assay 134 cancer cell lines, sample `CNC(=O)c1ccc(-c2cnc3ncc(Cc4ccc5ncccc5c4)n3n2)cc1F` , IC50 read: > 31.6 µM

Lab note: molecule `CCn1c(=O)c(-c2cc(NC(=O)Nc3ccccc3)c(F)cc2Br)cc2cnc(NC)cc21` tested on 134 cancer cell lines; recorded IC50 was 2.37 µM
